Listed here: items and their measured MIC.
- Test system: methicillin-resistant Staphylococcus aureus (MRSA)
- test: Broth microdilution MIC/MBC, MRSA
- Assay type: cell-based
- condition-description: MRSA NRS 119
Note: unit µM is implicit; provide only the numeric part.

Recorded MIC, per entry:
[
  {
    "compound": "O=C(O)[C@H](Cc1ccccc1)N1C(=O)/C(=C/c2cccc(-c3ccccc3)c2)SC1=S [Rh 5]",
    "readout-kind": "MIC",
    "unit-text": "µM",
    "numeric-readout": 8
  },
  {
    "compound": "O=C(O)[C@H](Cc1ccccc1)N1C(=O)/C(=C/c2cccc(Oc3ccc(Cl)c(Cl)c3)c2)SC1=S [Rh 1]",
    "readout-kind": "MIC",
    "unit-text": "µM",
    "numeric-readout": 8
  }
]

// switching to the query compound
Indicate its recorded MIC; the compound in question is O=C(O)[C@H](Cc1ccccc1)N1C(=O)/C(=C/c2cccc(-c3ccc(Cl)c(Cl)c3)c2)SC1=S [Rh 2]
4

Data origin, for the record: paper PMC5053523
